# target-or-test-system: UniProt P00746
# Sequence (P00746 26-253): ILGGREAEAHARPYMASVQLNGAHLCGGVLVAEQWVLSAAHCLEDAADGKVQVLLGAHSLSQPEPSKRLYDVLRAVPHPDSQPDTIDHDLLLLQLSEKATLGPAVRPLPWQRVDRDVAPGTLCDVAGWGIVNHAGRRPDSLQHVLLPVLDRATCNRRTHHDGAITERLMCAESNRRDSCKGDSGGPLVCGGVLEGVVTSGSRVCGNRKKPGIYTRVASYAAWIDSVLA
# assay-protocol: Human Factor D Assay
# Type: biochemical
# condition-info: Human Factor D, Table 3; read-out: IC50
Overview of reported IC50 across a group of compounds:

| compound | result |
| --- | --- |
| COC(=O)c1ncc(-c2ccc3c(c2)c(C(C)=O)nn3CC(=O)N2C[C@H](F)C[C@H]2C(=O)Nc2cccc(Br)n2)cn1 | < 1000 nM |

So what does the record say about IC50 for CNc1ncc2cc(-c3cn(CC(=O)N4C[C@H](F)C[C@H]4C(=O)Nc4cccc(Br)n4)nc3C(N)=O)ccc2n1 ?
> 10000 nM

So what's the measured IC50 for this one? CC(=O)c1nn(CC(=O)N2C[C@H](F)C[C@H]2C(=O)Nc2nc(OCC(F)(F)F)ccc2C)c2ccc(-c3cnc(C)nc3)cc12
< 1000 nM

Look up IC50: CC(=O)c1nn(CC(=O)N2C[C@@](F)(CN(C)C)C[C@H]2C(=O)Nc2nc(Br)ccc2C)c2ccc(-c3cnc(C)nc3)cc12
< 1000 nM

Recorded IC50 of CC(=O)c1nn(CC(=O)N2CCCC[C@@H]2C(=O)Nc2cccc(Br)n2)c2ccc(-c3cnc(C)nc3)cc12 , please.
> 10000 nM

Given CC(=O)c1nn(CC(=O)N2C[C@@](F)(CF)CC2C(=O)Nc2nc(Br)ccc2C)c2ccc(-c3cnc(N)nc3)cc12 (stereo in doubt) , state its recorded IC50.
< 1000 nM
